molecular target: Fatty-acid amide hydrolase 1 (Mus musculus, UniProt O08914); experiment: Inhibition of FAAH in mouse brain membrane
Sequence (O08914 whole entry): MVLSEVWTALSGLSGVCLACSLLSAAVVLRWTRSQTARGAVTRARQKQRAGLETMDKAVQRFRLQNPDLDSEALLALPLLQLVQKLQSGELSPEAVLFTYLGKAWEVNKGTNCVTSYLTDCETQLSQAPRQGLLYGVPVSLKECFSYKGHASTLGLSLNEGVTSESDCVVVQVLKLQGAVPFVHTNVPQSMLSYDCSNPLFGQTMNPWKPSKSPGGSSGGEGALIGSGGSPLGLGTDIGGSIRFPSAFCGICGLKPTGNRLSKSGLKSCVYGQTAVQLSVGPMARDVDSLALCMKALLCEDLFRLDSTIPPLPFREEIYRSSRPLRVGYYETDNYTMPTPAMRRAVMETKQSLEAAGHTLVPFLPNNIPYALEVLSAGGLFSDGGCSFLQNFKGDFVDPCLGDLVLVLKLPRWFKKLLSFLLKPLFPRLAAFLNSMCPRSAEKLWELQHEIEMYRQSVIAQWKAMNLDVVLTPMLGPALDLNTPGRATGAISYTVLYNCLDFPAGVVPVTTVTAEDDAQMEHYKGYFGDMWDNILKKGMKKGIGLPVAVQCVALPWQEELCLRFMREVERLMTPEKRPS
pIC50: −log10 of the molar value.
The label depends only on pIC50: yes if it is at least 5, no if it is smaller.

>  <structure-as-smiles>
COc1ccc(C(O)(c2ccc(OC)c(OC)c2)C2CCN(C(=O)Oc3ccc([N+](=O)[O-])cc3)CC2)cc1OC

>  <class-label>
no

$$$$
>  <structure-as-smiles>
COc1cc(OCc2ccccc2)ccc1CN1CCN(C(=O)Oc2ccc([N+](=O)[O-])cc2)CC1

>  <class-label>
yes

$$$$
>  <structure-as-smiles>
COc1ccc(C(O)(c2ccc(OC)cc2)C2CCN(C(=O)Oc3ccc([N+](=O)[O-])cc3)CC2)cc1

>  <class-label>
yes

$$$$
>  <structure-as-smiles>
COc1ccccc1C(O)(c1ccccc1OC)C1CCN(C(=O)Oc2ccc([N+](=O)[O-])cc2)CC1

>  <class-label>
no

$$$$
>  <structure-as-smiles>
COc1ccc(Oc2cccc(CN3CCN(C(=O)Oc4ccc([N+](=O)[O-])cc4)CC3)c2)cc1

>  <class-label>
yes

$$$$
>  <structure-as-smiles>
O=C(Oc1ccc([N+](=O)[O-])cc1)N1CCN(Cc2ccc3ccccc3n2)CC1

>  <class-label>
yes

$$$$
>  <structure-as-smiles>
O=C(Oc1ccc([N+](=O)[O-])cc1)N1CCC(=C(c2ccccc2)c2ccccc2)CC1

>  <class-label>
yes

$$$$
>  <structure-as-smiles>
COc1cccc(C(O)(c2cccc(OC)c2)C2CCN(C(=O)Oc3ccc([N+](=O)[O-])cc3)CC2)c1

>  <class-label>
yes

$$$$
